Numbers sourced from patent EP0059645A1.

# experimental system: Chromosomal, hyper-induced beta-lactamase enzyme (Escherichia coli, UniProt P00811)
# Sequence (P00811 20-377): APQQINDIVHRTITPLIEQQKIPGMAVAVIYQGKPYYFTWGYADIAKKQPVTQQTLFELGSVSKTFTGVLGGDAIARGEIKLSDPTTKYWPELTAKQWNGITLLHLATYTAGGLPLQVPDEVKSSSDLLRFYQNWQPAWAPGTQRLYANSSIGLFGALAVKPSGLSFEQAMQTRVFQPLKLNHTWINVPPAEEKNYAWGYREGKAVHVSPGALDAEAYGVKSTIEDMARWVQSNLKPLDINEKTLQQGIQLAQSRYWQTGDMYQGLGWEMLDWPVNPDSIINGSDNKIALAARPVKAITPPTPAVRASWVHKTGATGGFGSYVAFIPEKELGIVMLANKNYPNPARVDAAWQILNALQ
# measurement protocol: Competitive assay with nitrocefin (RSAI)
# Format: biochemical, E. coli SNU35
# Set-up: Normally, therefore, the beta-lactamase has to be extracted from the cells for the purpose of the present invention; endogenous in cells; host or cells: E. coli SNU 35 (artificially produced strain)
Marks after values point to notes of the source that are not given here.
measurement kind: RSAI

If you can, please state the reported RSAI value of CC1(C)S[C@@H]2[C@H](NC(=O)C(C(=O)O)c3ccccc3)C(=O)N2[C@H]1C(=O)O (some centres unmarked) .
0.00005*

Quick one: RSAI of Cc1onc(-c2ccccc2Cl)c1C(=O)N[C@@H]1C(=O)N2[C@@H]1SC(C)(C)[C@@H]2C(=O)O ?
0.0000016*

Query (compound): CC1(C)S[C@@H]2[C@H](NC(=O)[C@H](N)c3ccccc3)C(=O)N2[C@H]1C(=O)O ; field requested: RSAI
0.03*

Could you tell me which RSAI is on file for CC1(C)[C@H](C(=O)O)N2C(=O)C[C@H]2S1(=O)=O ?
1.7*

Which RSAI is reported for this compound? Cn1nnnc1SCC1=C(C(=O)O)N2C(=O)[C@@H](NC(=O)[C@H](O)c3ccccc3)[C@H]2SC1
0.12*

Continuing:
Quick check: RSAI of CO[C@@]1(NC(=O)C(C(=O)O)c2ccc(O)cc2)C(=O)N2C(C(=O)O)=C(CSc3nnnn3C)CO[C@@H]21 (some centres unmarked) ?
0.002*

What does the record list as RSAI for CC(C)(O/N=C(\C(=O)N[C@@H]1C(=O)N2C(C(=O)[O-])=C(C[n+]3ccccc3)CS[C@H]12)c1csc(N)n1)C(=O)O ?
0.2*

Give the measured RSAI of CC1(C)S[C@@H]2[C@H](NC(=O)[C@H](NC(=O)N3CCN(S(C)(=O)=O)C3=O)c3ccccc3)C(=O)N2[C@H]1C(=O)O .
0.3

* * *

# experimental system: OXA-1 (Escherichia coli)
# Sequence (P13661 26-276): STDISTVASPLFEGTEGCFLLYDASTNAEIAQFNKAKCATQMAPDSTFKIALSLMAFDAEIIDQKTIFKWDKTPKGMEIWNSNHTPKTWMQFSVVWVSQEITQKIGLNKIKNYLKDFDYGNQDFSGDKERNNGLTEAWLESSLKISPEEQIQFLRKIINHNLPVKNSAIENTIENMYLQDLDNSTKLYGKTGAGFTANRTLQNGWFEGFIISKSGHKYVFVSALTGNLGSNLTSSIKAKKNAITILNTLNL
# measurement protocol: Competitive assay with nitrocefin (RSAI)
# Assay type: biochemical, E. coli 1527E
# Set-up: the beta-lactamase has to be extracted from the cells for the purpose of the present invention; made in house; host or cells: E. coli 1527E according to the earlier reading (crude cell extract)
Marks after values point to notes of the source that are not given here.
measurement kind: RSAI

Example entries begin here.
Consider the compound shown here: C[C@@H](O)[C@H]1C(=O)N2C(C(=O)O)=C(SCCN=CN)C[C@H]12 What is its recorded RSAI?
0.6*

What does the record list as RSAI for CC1(C)[C@H](C(=O)O)N2C(=O)C[C@H]2S1(=O)=O ?
8*

New cases:
May I ask what RSAI has been recorded for CO/N=C(\C(=O)N[C@@H]1C(=O)N2C(C(=O)O)=C(CSc3nc(=O)c(=O)[nH]n3C)CS[C@H]12)c1csc(N)n1 ?
0.9

* * *

# experimental system: Chromosomal, constitutive beta-lactamase enzyme (Enterobacter cloacae, UniProt P05364)
# Construct: Normally, therefore, the beta-lactamase has to be extracted from the cells for the purpose of the present invention; endogenous in cells
# Sequence (P05364 21-381): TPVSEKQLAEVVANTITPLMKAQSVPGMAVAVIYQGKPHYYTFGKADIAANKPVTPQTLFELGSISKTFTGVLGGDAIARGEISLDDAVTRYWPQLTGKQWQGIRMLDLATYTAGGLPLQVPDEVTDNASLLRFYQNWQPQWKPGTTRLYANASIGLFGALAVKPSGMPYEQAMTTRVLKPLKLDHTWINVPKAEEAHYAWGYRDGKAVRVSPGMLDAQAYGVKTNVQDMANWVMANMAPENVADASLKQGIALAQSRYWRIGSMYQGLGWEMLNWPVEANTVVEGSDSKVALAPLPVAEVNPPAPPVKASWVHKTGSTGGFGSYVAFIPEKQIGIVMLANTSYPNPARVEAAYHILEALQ
# measurement protocol: Competitive assay with nitrocefin (RSAI)
# Format: biochemical, E. cloacae
measurement kind: RSAI
Number only, no unit.

Illustrative cases are given below, each with its answer.
Could you share which RSAI value was measured for Cn1nnnc1SCC1=C(C(=O)O)N2C(=O)[C@@H](NC(=O)[C@H](O)c3ccccc3)[C@H]2SC1 ?
0.03

GET /values?readout=RSAI&item= CC1(C)S[C@@H]2[C@H](NC(=O)Cc3ccccc3)C(=O)N2[C@H]1C(=O)O
0.08

Which RSAI is listed for CC1(C)S[C@@H]2[C@H](NC(=O)[C@H](N)c3ccccc3)C(=O)N2[C@H]1C(=O)O ?
0.02

Reported RSAI, compound CC1(C)S[C@@H]2[C@H](NC(=O)[C@H](N)c3ccc(O)cc3)C(=O)N2[C@H]1C(=O)O : ____
0.05

So what's the measured RSAI for this one? O=C(O)[C@H]1/C(=C/CO)O[C@@H]2CC(=O)N21
50

For the compound shown here, CO/N=C(\C(=O)N[C@@H]1C(=O)N2C(C(=O)O)=C(COC(C)=O)CS[C@H]12)c1csc(N)n1 , give the reported RSAI.
0.0006

// RSAI lookup, key: Cc1onc(-c2ccccc2Cl)c1C(=O)N[C@@H]1C(=O)N2[C@@H]1SC(C)(C)[C@@H]2C(=O)O
0.00004

For CC1=C(C(=O)O)N2C(=O)[C@@H](NC(=O)[C@H](N)C3=CCC=CC3)[C@H]2SC1 , what is its reported RSAI?
1.8

What does the data say about its RSAI? Entry: Cc1nnc(SCC2=C(C(=O)O)N3C(=O)[C@@H](NC(=O)Cn4cnnn4)[C@H]3SC2)s1
17

# next compound below
Please report the recorded RSAI for CO[C@@]1(NC(=O)Cc2cccs2)C(=O)N2C(C(=O)O)=C(COC(N)=O)CS[C@@H]21 .
0.01

* * *

# experimental system: OXA-2 (Escherichia coli, UniProt P0A1V9)
# Sequence (P0A1V9 22-275): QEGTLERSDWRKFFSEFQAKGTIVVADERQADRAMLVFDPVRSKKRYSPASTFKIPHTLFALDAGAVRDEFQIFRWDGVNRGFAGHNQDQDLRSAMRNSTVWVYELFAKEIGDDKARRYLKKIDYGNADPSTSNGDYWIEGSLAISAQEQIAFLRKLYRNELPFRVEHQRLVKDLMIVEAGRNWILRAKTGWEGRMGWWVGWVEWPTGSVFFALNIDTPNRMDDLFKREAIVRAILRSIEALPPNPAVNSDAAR
# measurement protocol: Competitive assay with nitrocefin (RSAI)
# Type: biochemical, E. coli R46
# Parameters: the beta-lactamase has to be extracted from the cells for the purpose of the present invention; made in house; host or cells: E. coli carrying R46 according to the earlier reading (crude cell extract)
Marks after values point to notes of the source that are not given here.
measurement kind: RSAI

Form field: reported RSAI of CC1(C)[C@H](C(=O)O)N2C(=O)C[C@H]2S1(=O)=O
0.15*

Query: RSAI; subject: C[C@@H](O)[C@H]1C(=O)N2C(C(=O)O)=C(SCCN=CN)C[C@H]12
0.005*

Recorded RSAI for CO[C@@]1(NC(=O)C(C(=O)O)c2ccc(O)cc2)C(=O)N2C(C(=O)O)=C(CSc3nnnn3C)CO[C@@H]21 (stereo partly shown) , please?
3*

Okay, now this compound:
What value of RSAI has been reported for the following compound? O=C(O)[C@H]1/C(=C/CO)O[C@@H]2CC(=O)N21
0.9*

* * *

# experimental system: Chromosomal, constitutive beta-lactamase enzyme (Enterobacter cloacae)
# Construct: Normally, therefore, the beta-lactamase has to be extracted from the cells for the purpose of the present invention; endogenous in cells
# measurement protocol: Competitive assay with nitrocefin (RSAI)
# Format: biochemical, E. cloacae
Marks after values point to notes of the source that are not given here.
Recorded RSAI for the following compounds

As a guide, the following entries are already answered.
// query RSAI value for entry CC1(C)S[C@@H]2[C@H](/N=C/N3CCCCCC3)C(=O)N2[C@H]1C(=O)O
1.3*

Fill in: RSAI of CC1(C)S[C@@H]2[C@H](NC(=O)[C@H](C(=O)O)c3ccsc3)C(=O)N2[C@H]1C(=O)O is ___
0.0008*

Read the next record carefully.
Name the recorded RSAI for CO[C@@]1(NC(=O)C(C(=O)O)c2ccc(O)cc2)C(=O)N2C(C(=O)O)=C(CSc3nnnn3C)CO[C@@H]21 (stereo partly drawn) .
0.0001*
